- Target Of Assay: Voltage-gated inwardly rectifying potassium channel KCNH2 (Homo sapiens)
- Test Method Notes: hERG rescue from dofetilide block, primary screen, cell-based, CHO-hERG, FluxOR thallium flux, dofetilide IC70 (AID 1511);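 further: thallium influx through hERG after potassium depolarization seen as dye fluorescence rise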
- Condition Description: dofetilide IC70 present, at 10 µM
About 1,600 (0.52%) of roughly 310,000 compounds were called active.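 How the source made its calls: active means activation above the mean of controls blocked by dofetilide plus 5 SD; inactive means the rest.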 The entries come from a sample that favours actives as a whole.
Pick one and only one: T for active, F for inactive

Field: example entries. Status: answers known.
COc1ccc(S(=O)(=O)NCC(c2ccco2)N2CCOCC2)cc1 (centres undefined); F
COCCCNC(=O)[C@H]1N2C(=O)c3ccccc3C2SC1(C)C (some centres undefined); F
Oc1c(Cl)cc(Cl)cc1/C=N/c1ncn[nH]1; T
N#Cc1c(N)nc2c(c1N)CC(C(F)(F)F)O2 (centres undefined); F
CCOC(=O)C1CCN(C(=O)COc2cccc3ccccc23)CC1; F

# outcome recorded in this test, key = CCCCCN1CC(O)=C(c2ccccc2)C1=N
T

Check the results log: what was the call for O=C(COC(=O)c1cnc(Cl)c(Cl)c1)NCc1ccco1 ?
T

Which outcome was entered for the molecule CCn1c(=S)[nH]c2sc3c(c2c1=O)CCCCC3 in this test?
T

Give the logged outcome of this assay for the following molecule: COc1ccc(CNC(=O)C(C)n2nc(C)c3c(C)n(-c4ccccc4)nc3c2=O)c(OC)c1 (centres undefined)
F

What outcome does the record of this test show for Cn1c(SCC(=O)N2CCOCC2)nnc1-c1ccc2ncccc2c1 ?
F

Which outcome was entered for the molecule CC1CCN(S(=O)(=O)c2ccc3ncn(CC(=O)N(C)C4CCCCC4)c(=O)c3c2)CC1 in this test?
F

Test call for this molecule, please: O=C1NC(c2ccccc2)Oc2ccccc21 (centres undefined)
F

// return assay outcome for O=C(COC(=O)c1ccco1)NCc1ccc(Cl)cc1
F

What did this assay record as the result for CCc1ccc(NC(=O)C(=O)N/N=C(\C)CC(=O)NCCOC)cc1 ?
T

Any idea what this test logged for Cn1c(SCC(=O)N2CCOCC2)nnc1-c1ccc(NC(=O)c2ccccc2F)cc1 ?
T

Assay result, entry O=C(Cn1cnc2ccccc2c1=O)Nc1cccc(S(=O)(=O)N2CCCCC2)c1 — outcome?
F

Dear all, I need the recorded test outcome for COc1ccc(COC(=O)N/N=C(\C)CC(=O)Nc2ccc(Cl)cc2)cc1 , thank you.
F

How was CC(=O)Cc1nsc(NC(=O)c2ccc(Cl)cc2Cl)n1 classified in this test?
F

GET /call?item= CCCc1nc2sc3c(c2c(=O)n1NC(=O)CCCl)CCCC3 returns the recorded outcome of this test.
F

Check the results log: what was the call for Cn1c(SCC(=O)N2CCCC2)nnc1-c1ccc2c(c1)OCO2 ?
F

Hello, I am checking results. What call was entered for COC(=O)C(C)N=Cc1ccccc1 (centres undefined) ?
F

Per the records of this test, what outcome belongs to O=C(CN(CC1CCCO1)C(=O)CNS(=O)(=O)c1ccc(F)cc1)NCc1ccco1 (centres undefined) ?
T

Per the records of this test, what outcome belongs to CCOC(=O)CCCN1CC(O)=C(c2nc3ccccc3s2)C1=N ?
F

What is the recorded call for this molecule in the test? CCN1CCCC1CNC(=O)Cn1cnc2ccc(S(=O)(=O)N3CCC(C)CC3)cc2c1=O (centres undefined)
T

----------
Recorded activation (rescue from dofetilide block), less the hit threshold for the following compounds
- Target Of Assay: Voltage-gated inwardly rectifying potassium channel KCNH2 (Homo sapiens)
- Test Method Notes: hERG rescue from dofetilide block, primary screen, cell-based, CHO-hERG, FluxOR thallium flux, dofetilide IC70 (AID 1511)
- Condition Description: dofetilide IC70 present, at 10 µM, hits give high values
Among all 310,000 compounds or so, about 1,600 (0.52%) were called active. Many of the other results were omitted from the sample, so actives are more common in it than they were.
// units = %; emit number, no label

Known activation (rescue from dofetilide block), less the hit threshold results, listed for orientation:
CC1CCN(C(=S)NC2CC3CCC2C3)CC1 (stereo not given); -8.02
Cc1ccc(NC(=O)CSc2nnc(CNC(=O)c3ccccc3F)o2)cc1Cl; -8.43
O=[N+]([O-])c1ccc(N2CCN(c3ccc(F)cc3)CC2)cn1; -4.38
Cc1ccc(N2C(=O)C3N=NN(CC(=O)N4N=C(c5cccc6ccccc56)CC4c4ccccc4)C3C2=O)cc1 (stereo not given); -4.02

// below: activation (rescue from dofetilide block), less the hit threshold requested for another compound
For CC(=O)N1CCN(S(=O)(=O)c2ccc(C)c([N+](=O)[O-])c2)C1C(C)C (stereo not given) , what is its reported activation (rescue from dofetilide block), less the hit threshold?
-8.18

----------
Listing of recorded activation (rescue from dofetilide block), less the hit threshold by entry.
- Target Of Assay: Voltage-gated inwardly rectifying potassium channel KCNH2 (Homo sapiens) (UniProt Q12809)
- Sequence (Q12809 whole entry, looked up): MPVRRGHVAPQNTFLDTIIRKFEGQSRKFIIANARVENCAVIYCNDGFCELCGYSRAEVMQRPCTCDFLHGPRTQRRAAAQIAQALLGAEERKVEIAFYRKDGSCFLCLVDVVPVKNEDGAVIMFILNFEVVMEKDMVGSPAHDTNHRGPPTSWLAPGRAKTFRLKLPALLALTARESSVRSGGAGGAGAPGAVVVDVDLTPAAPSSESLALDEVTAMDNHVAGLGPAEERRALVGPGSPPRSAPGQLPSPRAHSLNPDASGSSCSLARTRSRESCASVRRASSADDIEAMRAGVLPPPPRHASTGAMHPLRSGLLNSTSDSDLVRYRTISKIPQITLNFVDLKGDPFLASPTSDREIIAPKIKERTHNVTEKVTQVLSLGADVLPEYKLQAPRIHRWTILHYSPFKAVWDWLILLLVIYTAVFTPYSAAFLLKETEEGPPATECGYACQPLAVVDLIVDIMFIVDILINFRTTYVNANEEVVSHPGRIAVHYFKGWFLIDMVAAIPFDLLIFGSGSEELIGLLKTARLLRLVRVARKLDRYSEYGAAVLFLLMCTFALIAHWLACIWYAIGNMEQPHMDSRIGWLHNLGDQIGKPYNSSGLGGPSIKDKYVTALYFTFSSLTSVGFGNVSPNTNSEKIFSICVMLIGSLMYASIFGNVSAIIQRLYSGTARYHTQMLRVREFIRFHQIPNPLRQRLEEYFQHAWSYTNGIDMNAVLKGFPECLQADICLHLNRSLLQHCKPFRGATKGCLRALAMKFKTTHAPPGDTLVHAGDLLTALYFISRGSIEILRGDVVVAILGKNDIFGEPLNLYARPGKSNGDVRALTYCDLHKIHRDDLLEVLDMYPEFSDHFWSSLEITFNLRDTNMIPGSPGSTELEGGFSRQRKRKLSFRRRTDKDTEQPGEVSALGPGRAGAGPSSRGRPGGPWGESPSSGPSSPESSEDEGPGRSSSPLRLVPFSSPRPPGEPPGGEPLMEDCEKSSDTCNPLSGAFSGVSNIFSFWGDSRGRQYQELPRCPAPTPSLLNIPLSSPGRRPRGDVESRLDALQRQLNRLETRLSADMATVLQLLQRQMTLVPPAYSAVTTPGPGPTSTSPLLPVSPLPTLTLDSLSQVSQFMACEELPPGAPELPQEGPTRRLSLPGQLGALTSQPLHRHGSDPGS
- Test Method Notes: hERG rescue from dofetilide block, primary screen, cell-based, CHO-hERG, FluxOR thallium flux, dofetilide IC70 (AID 1511)
- Condition Description: dofetilide IC70 present, at 10 µM, hits give high values
About 1,600 (0.52%) of roughly 310,000 compounds were called active. Shown is part of a subset that was picked to be rich in actives.
Just the number in %, nothing appended.

Study these solved cases before continuing.
O=C1CCCc2c1nc(-c1cccc(Cl)c1)n2O; -10.5
Cc1cc(Cl)ccc1NNC(=O)c1snnc1C; -9.34
Cc1ccc(N(CC(=O)Nc2cc(C)cc(C)c2)S(=O)(=O)c2cccc3nonc23)cc1; 4.86
CCC1(C)Cc2c(sc3nc(SC)[nH]c(=O)c23)CO1 (centres undefined); -9.23
CCC1(C)Cc2c(sc3[nH]c(=S)n(Cc4ccccc4)c(=O)c23)CO1 (centres undefined); 32.2
CCC(C(=O)NC1CCCC1)N(C(=O)Cn1nnc(-c2ccc(C)o2)n1)c1ccc(OC)c(OC)c1 (centres undefined); -1.5
Clc1cccc(N=C2NN=C(c3ccc4c(c3)OCCO4)CS2)c1; -12.5
N#Cc1c(-c2ccc(F)cc2)cc(C2CC2)nc1SCC(=O)c1cccs1; 8.07
Cc1cc(O)c(C2(O)C(=O)Nc3ccccc32)cc1C (centres undefined); -4.06
COc1ccc(C2(O)C(=O)Nc3ccccc32)cc1 (centres undefined); 4.63

Consider now this further molecule.
Sample CCC1OC(c2ccc([N+](=O)[O-])cc2)=Nc2ccccc21 (centres undefined) — what was its activation (rescue from dofetilide block), less the hit threshold?
-15.1

----------
- Target Of Assay: Voltage-gated inwardly rectifying potassium channel KCNH2 (Homo sapiens) (UniProt Q12809)
- Test Method Notes: hERG rescue from dofetilide block, primary screen, cell-based, CHO-hERG, FluxOR thallium flux, dofetilide IC70 (AID 1511);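 further: thallium influx through hERG after potassium depolarization seen as dye fluorescence rise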
- Condition Description: dofetilide IC70 present, at 10 µM, hits give high values
Hit rate of the full screen: of about 310,000 compounds, about 1,600 (0.52%) were called active. Shown is part of a subset that was picked to be rich in actives.
Endpoint: activation (rescue from dofetilide block), less the hit threshold (%)
Give a bare numeral; the unit % is implied.

Guide cases for activation (rescue from dofetilide block), less the hit threshold, answers given:
CN(C)c1cc(N)c2ccccc2n1 (tested in a mixture with another compound); 5
COc1ccc(-c2cc(C(=O)N(C)Cc3ccccc3)c3ccccc3n2)cc1; -21.9
COC(=O)c1cccc(-n2[nH]nnc2=S)c1; -7.53
Nc1nc(-c2ccccc2)cc(-c2ccccc2)n1; -6.21
CCOC(=O)C1=C(C)Nc2sc(C(=O)c3ccc(Br)cc3)c(N)c2C1c1ccc(C(=O)OC)cc1 (stereo unspecified); -8.23

Fill in: activation (rescue from dofetilide block), less the hit threshold of CCOC(=O)c1ccc(Nc2cc3ccccc3c(=O)[nH]2)cc1 is ___
-10.6

----------
- Target Of Assay: Voltage-gated inwardly rectifying potassium channel KCNH2 (Homo sapiens) (UniProt Q12809)
- Test Method Notes: hERG rescue from dofetilide block, primary screen, cell-based, CHO-hERG, FluxOR thallium flux, dofetilide IC70 (AID 1511);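 further: thallium influx through hERG after potassium depolarization seen as dye fluorescence rise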
- Condition Description: dofetilide IC70 present, at 10 µM
The campaign covered roughly 310,000 compounds. About 1,600 (0.52%) were called active.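 The calls were made as follows: active = activation above the mean of controls blocked by dofetilide plus 5 SD; inactive = the rest.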 The sample holds actives, similar compounds and a random draw of the others, so the mix is not that of the screen.
Log the outcome using a class from active, inactive

Record excerpt, results attached:
Cc1cccc(Cn2cnc3c(N)c(C)c(C)cc32)c1; inactive
CCOC(=O)c1c(NC(=S)Nc2ccccc2)sc2c1CCN(C)C2; inactive
CCN1CCN(c2nc(Nc3cccc(F)c3)nc(N)c2[N+](=O)[O-])CC1; inactive
C=CCc1cc(S(=O)(=O)c2ccc(O)c(CC=C)c2)ccc1O; inactive

Short answer needed: outcome of this test for CCOC(=O)c1c(NC(=S)NC)sc2c1CCCC2 ?
active

Recorded call for O=C(O)CN(Cc1ccco1)S(=O)(=O)c1ccc(F)cc1 ?
inactive

----------
Here, each record is paired with measured activation (rescue from dofetilide block), less the hit threshold data.
- Target Of Assay: Voltage-gated inwardly rectifying potassium channel KCNH2 (Homo sapiens) (UniProt Q12809)
- Test Method Notes: hERG rescue from dofetilide block, primary screen, cell-based, CHO-hERG, FluxOR thallium flux, dofetilide IC70 (AID 1511);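 further: thallium influx through hERG after potassium depolarization seen as dye fluorescence rise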
- Condition Description: dofetilide IC70 present, at 10 µM, hits give high values
The campaign covered roughly 310,000 compounds. About 1,600 (0.52%) were called active. Only a selection was taken, and actives are over-represented in it overall.
Note: unit % is implicit; provide only the numeric part.

Please review the entries below; each comes with its answer.
CC(=O)Nc1ccc(NC(=O)CSc2nnnn2C2CCCCC2)cc1; -7.91
FC(F)(F)Oc1ccc(NC(=S)NCc2ccccc2)cc1; -9.66
CCCCn1c(=S)[nH]c2ncccc2c1=O; -2.34
Cc1cc(C)c(S(=O)(=O)c2ccccc2)c(OC(=O)c2c(F)cccc2Cl)n1; 8.53
CCC(=O)Nc1cccc(NC(=O)CSc2nnnn2C2CCCC2)c1; -7.7
Cc1cc(NC(=O)CSc2nc3ccccc3n2CC(C)C)no1; -8.27

As a next step, examine the molecule that follows.
Request - read-out activation (rescue from dofetilide block), less the hit threshold | tested on Voltage-gated inwardly rectifying potassium channel KCNH2 (Homo sapiens) (UniProt Q12809) | molecule CCOC(=O)N1CCN(C(=O)CN(c2ccc(C)c(C)c2)S(=O)(=O)c2ccccc2)CC1
-9.17
